Test: in vitro
Format: in vitro ADME
Settings: human, plasma, pH 7.4
Entries and their fraction unbound at 4 h, 5 μM

cpd_smiles=Cc1cc(NCc2ccncc2)c2nc(C)c(-c3ccc4c(c3)c(C)nn4C)n2n1 measurement=0.016
cpd_smiles=Cc1cc(NCc2ccc(S(C)(=O)=O)cc2)n2nc(C)c(-c3ccc4c(c3)c(C)nn4C)c2n1 measurement=0.01
cpd_smiles=Cc1cc(NCc2ccncc2)n2nc(C)c(-c3ccc4c(c3)c(C)nn4C)c2n1 measurement=0.027

Q. Supply reported fraction unbound at 4 h, 5 μM belonging to this compound: `Cc1nc(NCc2ccncc2)n2nc(C)c(-c3ccc4c(c3)c(C)nn4C)c2n1`
A. 0.906

Q. Using known records, supply fraction unbound at 4 h, 5 μM for `Cc1cc(NCc2ccc(S(C)(=O)=O)cc2)c2nc(C)c(-c3ccc4c(c3)c(C)nn4C)n2n1`
A. 0.005
